Test: Pharmacokinetic study in mice, plasma and brain structures, LC/MS/MS
Format: in vivo, Swiss albino mice
Conditions: Swiss albino, mouse, hippocampus, ip, 1.25 mg/kg, 1.25 mg/kg i.p., 30 min, read-out: Concentration, hippocampus (Mean)
readout.type: concentration at 30 min (ng/mL)

1) Cn1c(=O)c2c(nc3n(CCCCN4CCN(c5cccc(C(F)(F)F)c5)CC4)ccn23)n(C)c1=O [AZ-861]    253

----------
Test: Pharmacokinetic study in mice, plasma and brain structures, LC/MS/MS
Assay type: in vivo, Swiss albino mice
Details: Swiss albino, mouse, plasma, ip, 1.25 mg/kg i.p., read-out: MRT, plasma (converted)
readout.type: MRT (min)

1) Cn1c(=O)c2c(nc3n(CCCCN4CCN(c5cccc(C(F)(F)F)c5)CC4)ccn23)n(C)c1=O [AZ-861]    52.3

----------
Experiment: Pharmacokinetic study in mice, plasma and brain structures, LC/MS/MS
Format: in vivo, Swiss albino mice
Conditions: Swiss albino, mouse, frontal cortex, ip, 1.25 mg/kg i.p., read-out: MRT, frontal cortex (converted)
Protocol: Blood samples from the Swiss albino mice were collected at 0 (pre-dose), 5, 15, 30, 60, 120, 240 and 480 min after a compound administration. […] The ion source parameters were as follows: ion spray voltage: 5500 V; nebulizer gas (gas 1): 20 psi; turbo gas (gas 2): 25 psi; temperature of the heated nebulizer: 400°C; curtain gas: 40 psi; collision gas: 6 psi. […] Quantification was done via peak area ratio. […]
readout.type: MRT (h)

1) Cn1c(=O)c2c(nc3n(CCCCN4CCN(c5cccc(C(F)(F)F)c5)CC4)ccn23)n(C)c1=O [AZ-861]    1.54

----------
Test: Pharmacokinetic study in mice, plasma and brain structures, LC/MS/MS
Type: in vivo, Swiss albino mice
Details: Swiss albino, mouse, plasma, ip, 0.625 mg/kg, 0.625 mg/kg i.p., 120 min, read-out: Concentration, plasma (Mean)
readout.type: concentration at 120 min (ng/mL)

1. Cn1c(=O)c2c(nc3n(CCCCN4CCN(c5ccccc5F)CC4)ccn23)n(C)c1=O [AZ-853]    4.08

----------
Assay: Pharmacokinetic study in mice, plasma and brain structures, LC/MS/MS
Type: in vivo, Swiss albino mice
Conditions: Swiss albino, mouse, frontal cortex, ip, 0.625 mg/kg, 0.625 mg/kg i.p., 15 min, read-out: Concentration, frontal cortex (individual animals)
readout.type: concentration at 15 min (ng/mL)

1) Cn1c(=O)c2c(nc3n(CCCCN4CCN(c5ccccc5F)CC4)ccn23)n(C)c1=O [AZ-853]    318

----------
Assay: Pharmacokinetic study in mice, plasma and brain structures, LC/MS/MS
Assay type: in vivo, Swiss albino mice
Details: Swiss albino, mouse, plasma, ip, 0.625 mg/kg, 0.625 mg/kg i.p., read-out: Cmax, plasma
readout.type: Cmax (ng/mL)

1) Cn1c(=O)c2c(nc3n(CCCCN4CCN(c5ccccc5F)CC4)ccn23)n(C)c1=O    23.1

----------
Experiment: Pharmacokinetic study in mice, plasma and brain structures, LC/MS/MS
Format: in vivo, Swiss albino mice
Conditions: Swiss albino, mouse, hippocampus, ip, 0.625 mg/kg i.p., read-out: AUC0→t, hippocampus (converted)
readout.type: AUC(0-t) (ng·h/mL)

1. Cn1c(=O)c2c(nc3n(CCCCN4CCN(c5ccccc5F)CC4)ccn23)n(C)c1=O    210

----------
Assay: Pharmacokinetic study in mice, plasma and brain structures, LC/MS/MS
Type: in vivo, Swiss albino mice
Conditions: Swiss albino, mouse, striatum, ip, 1.25 mg/kg, 1.25 mg/kg i.p., 120 min, read-out: Concentration, striatum (Mean)
readout.type: concentration at 120 min (ng/mL)

1) Cn1c(=O)c2c(nc3n(CCCCN4CCN(c5cccc(C(F)(F)F)c5)CC4)ccn23)n(C)c1=O    25.6

----------
Experiment: Pharmacokinetic study in mice, plasma and brain structures, LC/MS/MS
Type: in vivo, Swiss albino mice
Conditions: Swiss albino, mouse, striatum, ip, 1.25 mg/kg, 1.25 mg/kg i.p., 30 min, read-out: Concentration, striatum (individual animals)
readout.type: concentration at 30 min

1) Cn1c(=O)c2c(nc3n(CCCCN4CCN(c5cccc(C(F)(F)F)c5)CC4)ccn23)n(C)c1=O [AZ-861]    341 ng/mL

----------
Experiment: Pharmacokinetic study in mice, plasma and brain structures, LC/MS/MS
Assay type: in vivo, Swiss albino mice
Details: Swiss albino, mouse, frontal cortex, ip, 1.25 mg/kg, 1.25 mg/kg i.p., 120 min, read-out: Concentration, frontal cortex (Mean)
Protocol: Blood samples from the Swiss albino mice were collected at 0 (pre-dose), 5, 15, 30, 60, 120, 240 and 480 min after a compound administration. […] The ion source parameters were as follows: ion spray voltage: 5500 V; nebulizer gas (gas 1): 20 psi; turbo gas (gas 2): 25 psi; temperature of the heated nebulizer: 400°C; curtain gas: 40 psi; collision gas: 6 psi. […] Quantification was done via peak area ratio. […]
readout.type: concentration at 120 min

1. Cn1c(=O)c2c(nc3n(CCCCN4CCN(c5cccc(C(F)(F)F)c5)CC4)ccn23)n(C)c1=O    41 ng/mL

----------
Test: Pharmacokinetic study in mice, plasma and brain structures, LC/MS/MS
Type: in vivo, Swiss albino mice
Details: Swiss albino, mouse, hippocampus, ip, 1.25 mg/kg, 1.25 mg/kg i.p., 15 min, read-out: Concentration, hippocampus (individual animals)
readout.type: concentration at 15 min (ng/mL)

1) Cn1c(=O)c2c(nc3n(CCCCN4CCN(c5cccc(C(F)(F)F)c5)CC4)ccn23)n(C)c1=O    264

----------
Test: Pharmacokinetic study in mice, plasma and brain structures, LC/MS/MS
Format: in vivo, Swiss albino mice
Settings: Swiss albino, mouse, hippocampus, ip, 1.25 mg/kg, 1.25 mg/kg i.p., 5 min, read-out: Concentration, hippocampus (Mean)
readout.type: concentration at 5 min

1. Cn1c(=O)c2c(nc3n(CCCCN4CCN(c5cccc(C(F)(F)F)c5)CC4)ccn23)n(C)c1=O [AZ-861]    274 ng/mL

----------
Test: Pharmacokinetic study in mice, plasma and brain structures, LC/MS/MS
Assay type: in vivo, Swiss albino mice
Settings: Swiss albino, mouse, frontal cortex, ip, 1.25 mg/kg, 1.25 mg/kg i.p., 30 min, read-out: Concentration, frontal cortex (Mean)
readout.type: concentration at 30 min (ng/mL)

1) Cn1c(=O)c2c(nc3n(CCCCN4CCN(c5cccc(C(F)(F)F)c5)CC4)ccn23)n(C)c1=O [AZ-861]    201

----------
Target: human serotonin 5-HT1A receptor (Homo sapiens)
Sequence (P08908 1-422): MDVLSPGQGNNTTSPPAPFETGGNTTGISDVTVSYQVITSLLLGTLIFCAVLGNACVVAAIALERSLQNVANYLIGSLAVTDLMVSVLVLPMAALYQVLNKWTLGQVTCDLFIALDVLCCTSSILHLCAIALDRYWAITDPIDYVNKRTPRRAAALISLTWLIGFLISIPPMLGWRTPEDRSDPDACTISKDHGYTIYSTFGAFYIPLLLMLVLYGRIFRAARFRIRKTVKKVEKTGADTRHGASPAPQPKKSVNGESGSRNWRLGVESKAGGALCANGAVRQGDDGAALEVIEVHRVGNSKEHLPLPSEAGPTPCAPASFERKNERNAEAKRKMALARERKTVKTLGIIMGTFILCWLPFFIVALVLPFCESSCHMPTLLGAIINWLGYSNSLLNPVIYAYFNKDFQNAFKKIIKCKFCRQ
Assay: ERK1/2 phosphorylation (SureFire Alpha LISA, CHO-K1 5HT1AR cells)
readout.type: EC50 (nM)

1) Cn1c(=O)c2c(nc3n(CCCCN4CCN(c5ccccc5F)CC4)ccn23)n(C)c1=O    6.61
2) Cn1c(=O)c2c(nc3n(CCCCN4CCN(c5cccc(C(F)(F)F)c5)CC4)ccn23)n(C)c1=O    1.15

----------
Assay: Pharmacokinetic study in mice, plasma and brain structures, LC/MS/MS
Type: in vivo, Swiss albino mice
Conditions: Swiss albino, mouse, frontal cortex, ip, 1.25 mg/kg, 1.25 mg/kg i.p., read-out: tmax, frontal cortex (converted)
readout.type: Tmax (min)

1. Cn1c(=O)c2c(nc3n(CCCCN4CCN(c5cccc(C(F)(F)F)c5)CC4)ccn23)n(C)c1=O [AZ-861]    5

----------
Experiment: Pharmacokinetic study in mice, plasma and brain structures, LC/MS/MS
Assay type: in vivo, Swiss albino mice
Settings: Swiss albino, mouse, plasma, ip, 1.25 mg/kg, 1.25 mg/kg i.p., plasma, read-out: Vd/F
readout.type: Vd/F

1) Cn1c(=O)c2c(nc3n(CCCCN4CCN(c5cccc(C(F)(F)F)c5)CC4)ccn23)n(C)c1=O    > 84 L/kg

----------
Assay: Pharmacokinetic study in mice, plasma and brain structures, LC/MS/MS
Type: in vivo, Swiss albino mice
Conditions: Swiss albino, mouse, hippocampus, ip, 0.625 mg/kg, 0.625 mg/kg i.p., 60 min, read-out: Concentration, hippocampus (Mean)
readout.type: concentration at 60 min (ng/mL)

1. Cn1c(=O)c2c(nc3n(CCCCN4CCN(c5ccccc5F)CC4)ccn23)n(C)c1=O    44.3

Sourced from paper PMC7413516
